# Tested on: H3255
# protocol: relative viability (nuclei count vs DMSO), 5 days (fraction); higher = more cells survive
# experimental.setup: first compound 1.265 µM
Please provide measured relative viability for the entries that follow.
Just the number, please, no unit attached.

Entry Cc1sc2c(c1C)C(c1ccc(Cl)cc1)=N[C@@H](CC(=O)OC(C)(C)C)c1nnc(C)n1-2 [JQ1] + N=C(N)NC(=N)NCCc1ccccc1 [Phenformin] (partner 250 µM) — recorded relative viability = 0.36

Entry Cc1sc2c(c1C)C(c1ccc(Cl)cc1)=N[C@@H](CC(=O)OC(C)(C)C)c1nnc(C)n1-2 [JQ1] + CC1(C)CCC(c2ccc(Cl)cc2)=C(CN2CCN(c3ccc(C(=O)NS(=O)(=O)c4ccc(N[C@H](CCN5CCOCC5)CSc5ccccc5)c(S(=O)(=O)C(F)(F)F)c4)cc3)CC2)C1 [Navitoclax] (partner 0.5 µM) — recorded relative viability = 0.268

Entry Cc1sc2c(c1C)C(c1ccc(Cl)cc1)=N[C@@H](CC(=O)OC(C)(C)C)c1nnc(C)n1-2 [JQ1] + O=C(CCCCCCC(=O)Nc1ccccc1)NO [Vorinostat] (partner 1 µM) — recorded relative viability = 0.526

Entry Cc1sc2c(c1C)C(c1ccc(Cl)cc1)=N[C@@H](CC(=O)OC(C)(C)C)c1nnc(C)n1-2 [JQ1] + CS(=O)(=O)CCNCc1ccc(-c2ccc3ncnc(Nc4ccc(OCc5cccc(F)c5)c(Cl)c4)c3c2)o1 [Lapatinib] (partner 2 µM) — recorded relative viability = 0.169

Entry Cc1sc2c(c1C)C(c1ccc(Cl)cc1)=N[C@@H](CC(=O)OC(C)(C)C)c1nnc(C)n1-2 [JQ1] + CC(=O)Nc1cccc(-n2c(=O)n(C3CC3)c(=O)c3c(Nc4ccc(I)cc4F)n(C)c(=O)c(C)c32)c1 [Trametinib] (partner 0.02 µM) — recorded relative viability = 0.345

Entry Cc1sc2c(c1C)C(c1ccc(Cl)cc1)=N[C@@H](CC(=O)OC(C)(C)C)c1nnc(C)n1-2 [JQ1] + Cc1cc(Nc2cc(N3CCN(C)CC3)nc(Sc3ccc(NC(=O)C4CC4)cc3)n2)n[nH]1 [Tozasertib] (partner 0.1 µM) — recorded relative viability = 0.426

###

# System: LU99A
# protocol: relative viability (nuclei count vs DMSO), 5 days (fraction); higher = more cells survive
# experimental.setup: first compound 0.002 µM
measurement.kind: relative viability
Just the number, please, no unit attached.

Entry CC(=O)O[C@@]12CO[C@@H]1C[C@H](O)[C@@]1(C)C(=O)[C@H](O)C3=C(C)[C@@H](OC(=O)[C@H](O)[C@@H](NC(=O)OC(C)(C)C)c4ccccc4)C[C@@](O)([C@@H](OC(=O)c4ccccc4)[C@H]21)C3(C)C [Docetaxel] + O=C(c1cc(Cc2n[nH]c(=O)c3ccccc23)ccc1F)N1CCN(C(=O)C2CC2)CC1 [Olaparib] (partner 8 µM) — recorded relative viability = 0.209

Entry CC(=O)O[C@@]12CO[C@@H]1C[C@H](O)[C@@]1(C)C(=O)[C@H](O)C3=C(C)[C@@H](OC(=O)[C@H](O)[C@@H](NC(=O)OC(C)(C)C)c4ccccc4)C[C@@](O)([C@@H](OC(=O)c4ccccc4)[C@H]21)C3(C)C [Docetaxel] + CC(C)C[C@H](NC(=O)[C@H](Cc1ccccc1)NC(=O)c1cnccn1)B(O)O [Bortezomib] (partner 0.002 µM) — recorded relative viability = 0.545

Entry CC(=O)O[C@@]12CO[C@@H]1C[C@H](O)[C@@]1(C)C(=O)[C@H](O)C3=C(C)[C@@H](OC(=O)[C@H](O)[C@@H](NC(=O)OC(C)(C)C)c4ccccc4)C[C@@](O)([C@@H](OC(=O)c4ccccc4)[C@H]21)C3(C)C [Docetaxel] + Cc1nc(NC(=O)N2CCC[C@H]2C(N)=O)sc1-c1ccnc(C(C)(C)C(F)(F)F)c1 [Alpelisib] (partner 2 µM) — recorded relative viability = 0.299

Entry CC(=O)O[C@@]12CO[C@@H]1C[C@H](O)[C@@]1(C)C(=O)[C@H](O)C3=C(C)[C@@H](OC(=O)[C@H](O)[C@@H](NC(=O)OC(C)(C)C)c4ccccc4)C[C@@](O)([C@@H](OC(=O)c4ccccc4)[C@H]21)C3(C)C [Docetaxel] + O=C(CCCCCCC(=O)Nc1ccccc1)NO [Vorinostat] (partner 1 µM) — recorded relative viability = 0.278

Data provenance is the supplement of paper PMC10307832.
